Target: T1, human PVRIG on cells (human, UniProt Q6DKI7 1-326)
T1 construct: whole, on cells; over-expressed on HEK cells or endogenous on Jurkat and CD8 T cells; also called hPVRIG; HEK hPVRIG cells
T1 sequence (looked up): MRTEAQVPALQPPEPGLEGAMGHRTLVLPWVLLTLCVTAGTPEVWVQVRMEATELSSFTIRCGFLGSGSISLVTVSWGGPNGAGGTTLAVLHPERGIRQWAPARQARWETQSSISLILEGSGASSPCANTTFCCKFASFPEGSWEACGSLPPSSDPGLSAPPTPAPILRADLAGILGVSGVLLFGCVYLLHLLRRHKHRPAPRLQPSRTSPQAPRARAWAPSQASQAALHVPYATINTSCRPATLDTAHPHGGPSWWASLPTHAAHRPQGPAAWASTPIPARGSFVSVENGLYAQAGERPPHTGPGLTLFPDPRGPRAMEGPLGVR
Test: FACS, HEK hPVRIG over HEK parental cells, 3.3ug/ml
Can you tell me gMFIr HEK OE/par for the items I'm about to list?
Lab note: record just the number, no unit beside it.

Exam item: Assign gMFIr HEK OE/par to the following record: CHA.7.503 (antibody, V domains shown) VH: QVQLQQSGAELAKPGASVKMSCKASGYTFTSNWMHWVKQRPGQGLEWIGYINPSNGYTECNQKFRDKATLSADKSSSTAYMQLNSLTSADSAVYYCALMISAWLPYWGQGTLVTVSA VL: DIVLTQSPASLAISLGQRATISCRASQSVSASSYSYVHWYQQKPGQPPKLLIKYASSLESGVPARFSGSGSGTDFTLNIHPVEEEDTATYYCLHTWEIPYTFGGGTKLEIK
Marked response: 261

Exam item: Assign gMFIr HEK OE/par to the following record: CHA.7.528 (antibody, V domains shown) VH: EVQVQQSGPELVKPGASVKISCKASGYTFTKSNMHWVKQSHGKSLEWIGYIYPYNGGTGYNQNFKSKATLTVDISSSTAYMELRSLTLEDSAVYLCAREADYYGNRGQFDYWGQGTLVTVSA VL: DIQMTQSPASLSVSVGETVTITCRASDNIFSNLAWYHQKQGKSPHLLVYGATNLADGVPSRFSGSGSGTQYSLKINSLQSEDFGDYYCQHFWGTPYTFGGGTKLEIK
Marked response: 44.9

Exam item: Assign gMFIr HEK OE/par to the following record: CHA.7.537 (antibody, V domains shown) VH: QVQLKESGPGLVAPSQSLSITCTVSGFSLIGHGVNWIRQPPGKGLEWLGVIWGDGNTDYNSALKSRLSISKDNSKSQVFLKMNSLQTDDTARYFCAVNSAMDYWGQGTAVTVSS VL: NIVMTQSPKSMSMSVGERVTLNCTASENVASFVSWYQQKPEQSPKLLIYGTSNRYTGVPDRFTGSGSATDFTLTISSVQAEDLGDYHCGQSYNYPFTFGSGTKLEIE
Marked response: 36.6
